# test description: Antiplatelet activity against rabbit platelets assessed as arachidonic acid-induced platelet aggregation by turbidimetric method
# Type: functional, cell-based
# assay conditions: Oryctolagus cuniculus
Lab note - cut at 20 µM for IC50: T if strictly below, F if not.

Completed entries (count: 5):
[
  {
    "compound": "CC(C)=CCc1cc(-c2oc3c(CC=C(C)C)c(O)cc(O)c3c(=O)c2O)ccc1O",
    "label": "T"
  },
  {
    "compound": "CC(C)=CCc1cc([C@@H]2CCc3ccc(O)cc3O2)c(CC=C(C)C)c(O)c1O",
    "label": "T"
  },
  {
    "compound": "COc1ccc2c(c1)OC(C=C(C)C)c1c-2oc2cc(O)c(/C=C/C(C)C)c(O)c2c1=O (stereo unspecified)",
    "label": "T"
  },
  {
    "compound": "CC(C)=CCc1cc(C(=O)/C=C/c2ccc(O)c(O)c2)c(O)cc1O",
    "label": "T"
  },
  {
    "compound": "CC(C)=CCc1c(-c2cc(O)c(O)cc2O)oc2c(CC=C(C)C)c3c(c(O)c2c1=O)C=CC(C)(C)O3",
    "label": "F"
  }
]

For the next question, use this compound.
Hello, I'm reviewing records and need to know if IC50 of `CC(C)=CCc1cc2c(cc1O)O/C(=C\c1ccc(O)c(O)c1)C2=O` is below 20 µM. Could you check?
T

====

# test description: Antiplatelet activity against rabbit platelets assessed as arachidonic acid-induced platelet aggregation at 100 uM by turbidimetric method
# Format: functional, Oryctolagus cuniculus
The reader will find reported Activity values listed item by item below.
The answer is to be given in %; state only the numeric part.

Examples with answers:
[
  {
    "compound": "CC(C)=CCc1c(-c2oc3c(CC=C(C)C)c(O)cc(O)c3c(=O)c2O)cc(O)c(O)c1CC=C(C)C [BROUSSOFLAVONOL E]",
    "uom": "%",
    "Activity": 0
  },
  {
    "compound": "CC(C)=CCc1c(-c2cc(O)c(O)cc2O)oc2c(CC=C(C)C)c3c(c(O)c2c1=O)C=CC(C)(C)O3 [HETEROPHYLLIN]",
    "uom": "%",
    "Activity": 0
  },
  {
    "compound": "CC(C)=CCc1cc(-c2oc3c(CC=C(C)C)c(O)cc(O)c3c(=O)c2O)ccc1O [BROUSSOFLAVONOL F]",
    "uom": "%",
    "Activity": 0
  }
]

If you can, please state the reported Activity value of CC(=O)Oc1cc(O)c(C(=O)/C=C/c2ccc(OC(C)=O)c(OC(C)=O)c2)cc1CC=C(C)C [BROUSSOCHALCONE TRIACETATE] .
9.6

====

# test description: Antiplatelet activity against rabbit platelets assessed as arachidonic acid-induced platelet aggregation by turbidimetric method
# Assay type: functional, cell-based
# assay conditions: Oryctolagus cuniculus
Some compounds, each annotated with its measured pIC50.
The meaning of pIC50 here: minus log10 of the concentration in molar units.

Observe how each entry below is paired with its result.
[
  {
    "compound": "COc1cc(O)c2c(=O)cc(-c3ccc(O)cc3O)oc2c1",
    "test result": 4.02
  },
  {
    "compound": "CC(C)=CCc1c(-c2oc3c(CC=C(C)C)c(O)cc(O)c3c(=O)c2O)cc(O)c(O)c1CC=C(C)C",
    "test result": 4.40
  },
  {
    "compound": "COc1cc(O)c2c(c1)O[C@H](c1ccc(O)cc1O)CC2=O",
    "test result": 4.39
  },
  {
    "compound": "CC(C)=CCc1c([C@@H]2CCc3ccc(O)cc3O2)cc2c(c1O)OC(C)(C)C(O)C2O (some centres not stated)",
    "test result": 4.06
  },
  {
    "compound": "CC(C)=CCc1c2c(c(O)c3c(=O)c4c(oc13)-c1cc(O)c(O)cc1OC4C=C(C)C)C=CC(C)(C)O2 (configuration not stated)",
    "test result": 4.96
  }
]

# query: pIC50 of entry CC(=O)Oc1cc(O)c(C(=O)/C=C/c2ccc(OC(C)=O)c(OC(C)=O)c2)cc1CC=C(C)C [BROUSSOCHALCONE TRIACETATE]
4.04

# lookup: pIC50 of `CC(C)=CCc1c([C@@H]2CCc3ccc(O)cc3O2)cc2c(c1O)OC(C)(C)C=C2`
4.49
